Form field: GI50 (one value per entry).
System: OVCAR-4
Assay info: NCI tumour cell line growth inhibition, 48 h
Active and inactive are the calls of the source. Cut-off read from the data, not from the text of the source: active = GI50 up to about 1.1 µM and inactive = higher.

Solved cases below.
# Molecule, System tested, GI50
records = [
    ("CC1=C(C)CC2C(=O)N(c3cc(C(C)(C)C)ccc3C(C)(C)C)C(=O)C2C1 (configuration not stated)", "OVCAR-4", "> 100 µM (inactive)"),
    ("CC/C=C\\C/C=C\\C/C=C\\CCCCCCCC(=O)OCC", "OVCAR-4", "> 100 µM (inactive)"),
    ("CC(=O)OCC1OC(SC2OC(COC(C)=O)C(OC(C)=O)C(OC(C)=O)C2OC(C)=O)C(OC(C)=O)C(OC(C)=O)C1OC(C)=O (configuration not stated)", "OVCAR-4", "> 100 µM (inactive)"),
    ("NNC(=O)c1ccccc1Nc1nc(-c2cccs2)nc2ccc(Br)cc12", "OVCAR-4", "6.7 µM (inactive)"),
    ("COc1ccc(-n2nnc(C(N)=O)c2O)cc1", "OVCAR-4", "> 100 µM (inactive)"),
]

# evaluate next
Task item: Reported GI50 for `CC[C@@H]1ON(C)[C@H]2CN(C)C(=O)[C@@H]12` : what is it?
Reply: > 100 µM (inactive)

---

Tested on: UO-31
Assay info: NCI tumour cell line growth inhibition, 48 h
Calls of active or inactive are those of the source. Cut-off read from the data, not from the text of the source: active = GI50 up to about 1.1 µM and inactive = higher.
Your answer must be one of the following: yes (active), no (inactive)

Previously resolved entries follow.
# Compound, System tested, Assigned class
rows = [
    ("Cc1ccc(NC(=O)c2cc3ccccc3c(/N=N/c3cc(S(=O)(=O)O)ccc3O)c2O)c(C)c1", "UO-31", "no"),
    ("COc1ccc(CNC2=C(NC(C)=O)C(=O)c3ccccc3C2=O)cc1", "UO-31", "no"),
    ("COCOc1ccc(OC)cc1", "UO-31", "no"),
    ("C=C1CC2CC[C@@]34C[C@H]5O[C@@H]6C(O[C@H]7CC[C@H](CC(=O)OC8[C@H](C)C9OC%10C[C@]%11(C[C@@H]%12O[C@]%13(C[C@H](C)[C@@H]%14O[C@H]([C@H](O)C[C@H](O)CO)C[C@@H]%14O%13)C[C@H](C)[C@@H]%12O%11)OC%10CC9O[C@H]8C[C@H]8O[C@H](CC[C@@H]1O2)C[C@@H](C)C8=C)O[C@H]7[C@@H]6O3)[C@@H]5O4 (some centres not stated)", "UO-31", "yes"),
    ("CCOC(=O)CN1C(=O)C(=O)N(c2ccc(OC)c3ccccc23)C1=O", "UO-31", "no"),
]

Task item: Record lookup: outcome of this test for `CN(CCN(C)C(=S)NN)C(=S)NN` ?
Reply: no

Task item: Consider next the compound `O=NNc1cnc(O)nc1O` in the same way.
Reply: no

---

# GI50 annotations
System: MDA-MB-435
Assay info: NCI tumour cell line growth inhibition, 48 h
Active and inactive are the calls of the source. No stated cut-off is given here; in the data, active = GI50 up to about 1.1 µM and inactive = higher.

Look over these answered cases.
# Compound, GI50
records = [
    ("CN(C)CC1CN=C(N)O1 (stereo not given)", "> 100 µM (inactive)"),
    ("CN(CCCN=C=S)CCCN1c2ccccc2CCc2ccccc21", "1.79 µM (inactive)"),
    ("Cc1nc2ccccc2c(=O)n1NC(=S)Nc1ccc(Cl)cc1[N+](=O)[O-]", "> 100 µM (inactive)"),
]

Task item: # returns recorded GI50 (system: MDA-MB-435) for `CC(C)/C(Cl)=N\OC(NC(=O)P(=O)(c1ccccc1)c1ccccc1)(C(F)(F)F)C(F)(F)F`
Reply: 16.3 µM (inactive)

From: ChEMBL document CHEMBL1201862
